Biological target: acyl-CoA:cholesterol acyltransferase (ACAT)
Assay: In vitro ACAT inhibition: formation of radiolabeled cholesterol oleate from radiolabeled oleic acid in rabbit intestinal microsomes
Conditions: tissue preparation containing rabbit intestinal microsomes, read-out: IC₅₀
Can you tell me IC50 for the items I'm about to list?
Give the value; after it, write the unit.

Example entries begin here.
IC50 reported for this compound CCCCCCCCCCC(C)(C)NC(=O)Nc1c(C(C)C)cccc1C(C)C [Example 20] : 45 nM

IC50 reported for this compound CCCCCCCCCCCCCCNC(=S)Nc1c(CC)cccc1CC [Example 12] : 420 nM

IC50 reported for this compound CCCCCCCCCCCCCCCCCCNC(=O)Nc1c(C(C)C)cccc1C(C)C [Example 11] : 48 nM

IC50 reported for this compound CCCCCCCC/C=C\CCCCCCCCNC(=O)Nc1c(Cl)cccc1Cl [Example 6] : 400 nM

IC50 reported for this compound CCCCCCCCCCCCCCNC(=O)Nc1c(CC)cccc1CC [Example 8, N-(2,6-Diethylphenyl)-N′-tetra-decylurea] : 21 nM

Can you give me IC50 for all of these, one by one?
1. CCCCCCCCCCNC(=O)Nc1c(C(C)C)cccc1C(C)C [Example 15]
2. CCCCCCCC/C=C\CCCCCCCCNC(=S)Nc1c(C)cccc1C [Example 3]

Result:
["56 nM", "10000 nM"]

====

Target: acyl-CoA:cholesterol acyltransferase (ACAT)
Test: In vitro ACAT inhibition: formation of radiolabeled cholesterol oleate from radiolabeled oleic acid in rabbit intestinal microsomes
Conditions: tissue preparation containing rabbit intestinal microsomes, read-out: IC₅₀
Can you tell me pIC50 for the items I'm about to list?
Answers are plain numbers, as −log10 of the molar value.

Example entries begin here.
pIC50 reported for this molecule "CCCCCCCCCCCCCCNC(=O)Nc1c(CC)cccc1C(C)C" : 7.72

pIC50 reported for this molecule "CCCCCCCCCCCCCCCCCCNC(=O)Nc1c(C)cccc1Cl" : 5.96

Can you give me pIC50 for all of these, one by one?
1. CCCCCCCC/C=C\CCCCCCCCNC(=O)Nc1c(C)cccc1C
2. CCCCCCCCCCC1(NC(=O)Nc2c(CC)cccc2CC)CCCC1

Result:
6.80
7.00
